SYSTEM_UNDER_TEST: T1, CD137-hisFc fusion protein (Sino Biological Cat 10041-H03H) (human, UniProt Q07011 24-186)
T1 construct: Bought; also called recombinant human CD137 (fused with human Fc and His tag); not shown: His tag and human Fc
EXPERIMENT: BLI Octet, Fab
# maps each entry to its koff
Write the answer as a number in s⁻¹, unit excluded.

Recorded koff, per entry:
Fab 5349 (Fab, V domains shown, Fab from E. coli; also called VH24/VL24) VH: EVQLVESGGGLVQPGGSLRLSCAASGYSITSGHYWAWIRQAPGKGLEWVSAISGSGSSTYYADSVKGRFTISRDNSKNTLYLQLNSLRAEDTAVYYCARGGSDTVLGDWFAYWGQGTLVTVSS VL: DIQLTQSPSSLSASVGDRVTITCRASQGISSSLAWYQQKPGKAPKLLIYDASNLETGVPSRFSGSGSGTDFTLTISSLQPEDFATYYCQQGYSTWTFGQGTKVEIKR    0.00101
Fab 4079 (Fab, V domains shown, Fab from E. coli; also called VH5/VL5) VH: EVQLVESGGGLVQPGGSLRLSCAASGFTFTGYWIHWVRQAPGKGLEWVGRIRSKTDGYTTEYAAPVKGRFTISRDNSKNTLYLQLNSLRAEDTAVYYCARLGGHWYFDVWGQGTLVTVSS VL: DIQLTQSPSSLSASVGDRVTITCRASQSIGRYLNWYQQKPGKAPKLLIYDASNLETGVPSRFSGSGSGTDFTLTISSLQPEDFATYYCEQPLELPRTFGQGTKVEIKR    0.00219
Fab 4074 (Fab, V domains shown, Fab from E. coli) VH: EVQLVESGGGLVQPGGSLRLSCAASGFSLSTGGVGVSWIRQAPGKGLEWVSSISGSGGTTYYADSVKGRFTISRDNSKNTLYLQLNSLRAEDTAVYYCARDDLYSWYFDVWGQGTLVTVSS VL: DIQLTQSPSSLSASVGDRVTITCRASQGIGSSLAWYQQKPGKAPKLLIYAASSLQSGVPSRFSGSGSGTDFTLTISSLQPEDFATYYCQQGYYTWTFGQGTKVEIKR    0.000937
Fab 7079 (Fab, V domains shown, Fab from E. coli; also called VH42/VL42) VH: EVQLVESGGGLVQPGGSLRLSCAASGFSLSTSGVGVAWIRQAPGKGLEWVSSISGYGGTTYYADSVKGRFTISRDNSKNTLYLQLNSLRAEDTAVYYCAREGSDTVLGDWFAYWGQGTLVTVSS VL: DIQLTQSPSSLSASVGDRVTITCRASQGISSYLAWYQQKPGKAPKLLIYDASNLETGVPSRFSGSGSGTDFTLTISSLQPEDFATYYCQQYYTTPLTFGQGTKVEIKR    0.003

// Fab 5407 (Fab, V domains shown, Fab from E. coli; also called VH35/VL35) VH: EVQLVESGGGLVQPGASLRLSCAASGFSLSTGGVGVAWIRQAPGKGLEWVSSISGYGSTTYYADSVKGRFTISRDNSKNTLYLQLNSLRAEDTAVYYCAREGSDAVLGDWFGYWGQGTLVTVSS VL: DIQLTQSPSSLSASVGDRVTITCQASQDITTYLAWYQQKPGKAPKLLIYDASNRATGIPSRFSGSGSGTDFTLTISSLQPEDFATYYCQQGYYLWTFGQGTKVEIKR : koff value = 0.000437
